Where do the numbers come from? From patent US10272075B2.

- system: rat alpha1A-adrenoceptor (Rattus norvegicus, UniProt P43140)
- Sequence (P43140 1-466): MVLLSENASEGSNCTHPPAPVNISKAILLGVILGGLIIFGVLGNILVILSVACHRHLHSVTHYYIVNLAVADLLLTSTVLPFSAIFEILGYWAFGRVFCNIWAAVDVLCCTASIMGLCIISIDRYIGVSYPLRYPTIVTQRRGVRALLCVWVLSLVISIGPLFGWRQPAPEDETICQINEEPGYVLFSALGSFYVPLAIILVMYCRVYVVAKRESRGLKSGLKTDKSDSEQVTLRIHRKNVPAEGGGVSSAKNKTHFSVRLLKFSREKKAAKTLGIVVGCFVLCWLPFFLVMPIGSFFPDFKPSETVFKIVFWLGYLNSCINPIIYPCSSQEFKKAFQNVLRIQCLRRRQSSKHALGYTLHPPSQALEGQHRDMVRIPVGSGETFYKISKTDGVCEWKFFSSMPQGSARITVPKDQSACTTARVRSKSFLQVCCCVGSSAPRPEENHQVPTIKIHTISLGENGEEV
assay-readout: IC50 (nM)
Write the answer as a number in nM, unit excluded.

## Task // Input: `COc1cc(C(=O)O)ccc1OCCCN1CCC(c2noc3cc(F)ccc23)CC1` . Output its IC50 only.
## Result 11.5
